Data origin: patent US6215002A

Target: human neutrophil elastase (Homo sapiens, UniProt P08246)
Sequence (P08246 30-267): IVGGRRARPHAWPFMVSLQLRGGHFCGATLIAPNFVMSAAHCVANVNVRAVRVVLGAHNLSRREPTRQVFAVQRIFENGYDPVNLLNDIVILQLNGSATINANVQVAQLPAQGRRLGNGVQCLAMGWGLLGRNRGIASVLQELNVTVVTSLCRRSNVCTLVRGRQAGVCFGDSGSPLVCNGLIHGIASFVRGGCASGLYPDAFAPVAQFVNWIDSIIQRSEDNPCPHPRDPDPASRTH
Test: In vitro assay of human neutrophil elastase (HNE)
Type: biochemical
Settings: 118 nM purified human neutrophil elastase, pH 8.6, 15 min incubation at 30° C., MeO-succinyl-alanyl-alanyl-prolyl-valyl-p-nitroanilide substrate; read-out: HNE IC50
Counter-ions that a name gives are not always drawn.
MEASURED_QUANTITY: IC50 (nM)

# COMPOUND, READING
data = [
    ("CC(C)[C@H]1C(=O)N(S(C)(=O)=O)[C@H]2CCN(C(=O)c3ccc(CN(C)C)o3)[C@H]12.Cl (relative stereo) [Example 251, hydrochloride]", 43),
]

A. C=CC[C@H]1C(=O)N(S(=O)(=O)c2cccc3c(N(C)C)cccc23)[C@H]2CCN(C(=O)OCc3ccccc3)[C@H]12 (relative stereo) [Example 18]
B. CCC[C@H]1C(=O)N(S(C)(=O)=O)[C@H]2CCN(C(=O)CCCCCCCCCN3CCCCCC3)[C@H]12 (relative stereo) [Example 66, hydrochloride]
q: # returns the entry with the larger IC50; inputs A and B Please indicate the selected item by its label.
a: A

###

Test system: Intracellular elastase
Test: Oral in vivo model using IL-8 induced lung infiltrates for the assessment of intracellular elastase inhibition (hamster test)
Conditions: effective dose of less than 40 mg/kg, IL-8 intratracheal
Experimental: An Oral in vivo Model Using IL-8 Induced Lung Infiltrates For the Assessment of Intracellular Elastase Inhibition Adult hamsters (100-150 g) are randomised into groups (n=4) and fasted overnight. Under gaseous anaesthetic (3% isofluorane) animals are dosed orally with 1 mL/100 g water as vehicle or containing predissolved compounds. Either at the same time, or subsequently under anaesthetic, animals are dosed intratracheally with 1 ug recombinant human IL-8 in 100 uL sterile saline. […]
Counter-ions that a name gives are not always drawn.
MEASURED_QUANTITY: duration of effect

The examples below pair each entry with its known result.
# MOLECULE, MEASURED_QUANTITY, READING
measured = [
    ("CC(C)[C@H]1C(=O)N(S(C)(=O)=O)[C@H]2CCN(C(=O)c3ccc(CN(C(C)C)C(C)C)cc3)[C@H]12 (relative stereo) [Example 201, hydrochloride]", "duration of effect", "at least 6 hours"),
    ("CC(C)[C@H]1C(=O)N(S(C)(=O)=O)[C@H]2CCN(C(=O)/C=C/CN(C)C)[C@H]12.Cl (relative stereo)", "duration of effect", "at least 6 hours"),
    ("CC(C)[C@H]1C(=O)N(S(C)(=O)=O)[C@H]2CCN(C(=O)c3ccc(CN4CCNCC4)cc3)[C@H]12.Cl.Cl (relative stereo)", "duration of effect", "at least 6 hours"),
    ("CC(=O)N1CCN(C/C=C/C(=O)N2CC[C@H]3[C@H]2[C@@H](C(C)C)C(=O)N3S(C)(=O)=O)CC1.Cl (relative stereo)", "duration of effect", "at least 6 hours"),
]

q: // duration of effect lookup, key: CC(C)[C@H]1C(=O)N(S(C)(=O)=O)[C@H]2CCN(C(=O)/C=C/c3ccc(CN4CCCCC4)cc3)[C@H]12.Cl (relative stereo)
a: at least 6 hours

q: Fill in: duration of effect of CC(C)[C@H]1C(=O)N(S(C)(=O)=O)[C@H]2CCN(C(=O)c3ccc(CN4CCCCCC4)cc3)[C@H]12 (relative stereo) [Example 178, hydrochloride] is ___
a: at least 6 hours

q: I am curious: what duration of effect value has been reported for CCCN(C)Cc1ccc(C(=O)N2CC[C@H]3[C@H]2[C@@H](C(C)C)C(=O)N3S(C)(=O)=O)cc1.Cl (relative stereo) ?
a: at least 6 hours

q: State the recorded duration of effect for this entry: CC(C)[C@H]1C(=O)N(S(C)(=O)=O)[C@H]2CCN(C(=O)/C=C/CN3CCC(C(N)=O)CC3)[C@H]12.Cl (relative stereo)
a: at least 6 hours

q: Request the reported duration of effect associated with CC(C)NCc1ccc(C(=O)N2CC[C@H]3[C@H]2[C@@H](C(C)C)C(=O)N3S(C)(=O)=O)cc1.Cl (relative stereo)
a: at least 6 hours

q: Item under review: CC(C)[C@H]1C(=O)N(S(C)(=O)=O)[C@H]2CCN(C(=O)c3ccc(CN4CCC(C(N)=O)CC4)cc3)[C@H]12.Cl (relative stereo) . Reported duration of effect?
a: at least 6 hours

q: Please give the measured duration of effect for this molecule: CC(C)[C@H]1C(=O)N(S(C)(=O)=O)[C@H]2CCN(C(=O)c3ccc(CN(C)C)o3)[C@H]12.Cl (relative stereo)
a: at least 6 hours

q: Requested field: duration of effect. Item: CCC[C@H]1C(=O)N(S(C)(=O)=O)[C@H]2CCN(C(=O)CCN3CCCCC3)[C@H]12 (relative stereo)
a: at least 6 hours

q: Could you tell me which duration of effect is on file for CC(C)[C@H]1C(=O)N(S(C)(=O)=O)[C@H]2CCN(C(=O)c3ccc(CN4CCN(C)CC4)cc3)[C@H]12.Cl.Cl (relative stereo) ?
a: at least 6 hours

q: Given the entry CC(C)[C@H]1C(=O)N(S(C)(=O)=O)[C@H]2CCN(C(=O)c3ccc(CNC4CC4)o3)[C@H]12 (relative stereo) [Example 252, hydrochloride] , report its measured duration of effect.
a: at least 6 hours

q: If you can, please state the reported duration of effect value of CC(C)[C@H]1C(=O)N(S(C)(=O)=O)[C@H]2CCN(C(=O)CCN3CCCCC3)[C@H]12 (relative stereo) [Example 61, hydrochloride] .
a: at least 6 hours

q: Which measured duration of effect value corresponds to COC(=O)[C@@H]1CCCN1C/C=C/C(=O)N1CC[C@H]2[C@H]1[C@@H](C(C)C)C(=O)N2S(C)(=O)=O (relative stereo) [Example 140, hydrochloride] ?
a: at least 6 hours

###

Biological target: human neutrophil elastase (Homo sapiens, UniProt P08246)
Experiment: In vitro assay of human neutrophil elastase (HNE)
Assay type: biochemical
Settings: HNE IC50, 118 nM purified human neutrophil elastase, pH 8.6, 15 min incubation at 30° C., MeO-succinyl-alanyl-alanyl-prolyl-valyl-p-nitroanilide substrate
Protocol: In Vitro Assays of Human Neutrophil Elastase 118 nM purified human neutrophil elastase Suitable concentrations of compound under test diluted with water from a 10 mM stock solution in dimethylsulphoxide. […] The mixture above is incubated for fifteen minutes at 30° C. at which time the remaining elastase activity is measured for 10 minutes in a BioTek 340i plate-reader, after the addition of 0.6 mM MeO-succinyl-alanyl-alanyl-prolyl-valyl-p-nitroanilide. […]
Counter-ions that a name gives are not always drawn.
MEASURED_QUANTITY: IC50 (µM)
Provide the reading as a plain figure in µM.

q: Form: Entry = CCC[C@H]1C(=O)N(S(C)(=O)=O)[C@H]2CCN(C(=O)CCCCCN3C4CCCC3CC4)[C@H]12 (relative stereo) [Example 75, hydrochloride] | System = human neutrophil elastase (Homo sapiens, UniProt P08246) | IC50 = ____
a: 0.033

###

Target: human neutrophil elastase (Homo sapiens, UniProt P08246)
Assay: In vitro assay of human neutrophil elastase (HNE)
Assay type: biochemical
Conditions: 118 nM purified human neutrophil elastase, pH 8.6, 15 min incubation at 30° C., MeO-succinyl-alanyl-alanyl-prolyl-valyl-p-nitroanilide substrate; read-out: HNE IC50
pIC50: −log10 of the molar value. Structures can show the parent of a compound that is named as a salt.
MEASURED_QUANTITY: pIC50

Solved cases (4 shown):
# MOLECULE, pIC50
records = [
    ("CCC[C@H]1C(=O)N(S(C)(=O)=O)[C@H]2CCN(C(=O)CCCCCCCCCN(CC)CC)[C@H]12 (relative stereo) [Example 65]", 7.18),
    ("CC(C)[C@H]1C(=O)N(S(C)(=O)=O)[C@H]2CCN(C(=O)/C=C/c3ccc(CN(C)C)cc3)[C@H]12 (relative stereo) [Example 159, hydrochloride]", 7.77),
    ("CCC[C@H]1C(=O)N(S(C)(=O)=O)[C@H]2CCN(S(=O)(=O)c3cccc([N+](=O)[O-])c3)[C@H]12 (relative stereo) [Example 222]", 6.97),
    ("CCC[C@H]1C(=O)N(S(C)(=O)=O)[C@H]2CCN(S(=O)(=O)CCCN3CCCCC3)[C@H]12 (relative stereo) [Example 9]", 7.27),
]

I. CCC[C@H]1C(=O)N(S(=O)(=O)c2ccc3ccccc3c2)[C@H]2CCN(C(=O)CCCN(C)C)[C@H]12 (relative stereo) [Example 25]
II. CCC[C@H]1C(=O)N(S(=O)(=O)c2c(C)noc2C)[C@H]2CCN(C(=O)CCN3CCCCC3)[C@H]12 (relative stereo) [Example 170]
q: Hi team, can someone confirm which has the larger pIC50: I or II ? Thanks. Your answer should be the label of the entry you select.
a: I
(I: 7.23, II: 6.74)
